STUDY_TARGET: T. cruzi proteasome (Trypanosoma cruzi, UniProt V5BU39+V5C017)
Sequence (V5BU39 entry or part of it): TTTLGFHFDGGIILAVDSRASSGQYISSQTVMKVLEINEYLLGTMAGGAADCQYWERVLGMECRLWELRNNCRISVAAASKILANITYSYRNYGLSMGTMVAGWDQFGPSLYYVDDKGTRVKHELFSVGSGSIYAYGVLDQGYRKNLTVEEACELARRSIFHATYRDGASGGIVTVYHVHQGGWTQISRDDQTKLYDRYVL
Sequence (V5C017 entry or part of it): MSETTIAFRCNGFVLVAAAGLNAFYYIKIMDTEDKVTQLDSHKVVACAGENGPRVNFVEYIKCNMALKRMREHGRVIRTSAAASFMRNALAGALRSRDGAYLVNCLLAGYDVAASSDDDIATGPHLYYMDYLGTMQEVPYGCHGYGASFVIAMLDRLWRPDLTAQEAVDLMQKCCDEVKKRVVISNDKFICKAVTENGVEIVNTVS
PROTOCOL_SUMMARY: T. cruzi proteasome assay (chymotrypsin-like activity, Suc-LLVY-Rho-110-DPro)
MEASUREMENT_CONDITIONS: T. cruzi Prot pIC50, mean of at least three independent replicates
EXPERIMENTAL_ENDPOINT: pIC50
A value of pIC50 is the negative decimal logarithm of a concentration given in moles per litre.

compound="COc1ccc(Cn2nc(C(=O)Nc3ccc(F)c(C(=O)N[C@H](C)CO)c3)ccc2=O)cc1F [Compound 25]" reported_result=7.30
compound="O=C(Nc1ccc(F)c(C(=O)NC2CC2)c1)c1ccc(=O)n(Cc2ccccc2)n1 [Compound 9]" reported_result=6.80

Here is another compound to look at.
### Prompt Any idea what its pIC50 is? The compound is O=C(Nc1cccc(C(=O)NC2CC2)c1)c1ccc(=O)n(Cc2ccccc2)c1 [Compound 8]
### Response 5.80

----------
STUDY_TARGET: T. cruzi proteasome (Trypanosoma cruzi, UniProt V5BU39+V5C017)
PROTOCOL_SUMMARY: T. cruzi proteasome assay (chymotrypsin-like activity, Suc-LLVY-Rho-110-DPro)
MEASUREMENT_CONDITIONS: T. cruzi Prot pIC50, mean of at least three independent replicates
EXPERIMENTAL_ENDPOINT: log10(IC50) (log10 of the value in nM)
Short version: log10 scale, IC50, nM.

Worked set:
structure_notation=CNC(=O)c1cc(NC(=O)c2ccc(=O)n(Cc3ccc(OC)c(F)c3)n2)ccc1F experimental_endpoint=log10(IC50) reported_result=0.80
structure_notation=COc1ccc(Cn2nc(C(=O)Nc3ccc(F)c(C(=O)NC4CC4)c3)ccc2=O)cc1C#N experimental_endpoint=log10(IC50) reported_result=1.00
structure_notation=O=C(NC1CC1)c1cccc(NC(=O)c2ccc(=O)n(Cc3ccccc3)n2)c1 experimental_endpoint=log10(IC50) reported_result=2.80
structure_notation=O=C(Nc1ccc(F)c(C(=O)NC2CC2)c1)c1ccc(=O)n(CC2CCCCC2)n1 experimental_endpoint=log10(IC50) reported_result=2.60
structure_notation=O=C(Nc1ccc(F)c(C(=O)NC2CC2)c1)c1ccc(=O)n(Cc2ccc(Cl)c(F)c2)n1 experimental_endpoint=log10(IC50) reported_result=1.40
structure_notation=COc1ccc(Cn2nc(C(=O)Nc3ccc(F)c(C(=O)NCCN4CCOCC4)c3)ccc2=O)cc1 experimental_endpoint=log10(IC50) reported_result=2.10

Now for the compound whose log10(IC50) we want.
### Prompt Using the record for O=C(NC1CC1)c1ccc(F)c(NC(=O)c2ccc(=O)n(Cc3ccccc3)n2)c1 , report its log10(IC50).
### Response 3.20

----------
Attribute: Tc Prot Max Response (%)
STUDY_TARGET: T. cruzi proteasome (Trypanosoma cruzi, UniProt V5BU39+V5C017)
PROTOCOL_SUMMARY: T. cruzi proteasome assay (chymotrypsin-like activity, Suc-LLVY-Rho-110-DPro)
MEASUREMENT_CONDITIONS: individual replicate
Return type: number; implicit unit %.

The cases that follow already have their Tc Prot Max Response (%) on record.
molecule="O=C(Nc1ccc(F)c(C(=O)NC2CC2)c1)c1ccc(=O)n(CC2CCCCC2)n1 [Compound 11]" study_target="T. cruzi proteasome (Trypanosoma cruzi, UniProt V5BU39+V5C017)" experimental_endpoint="Tc Prot Max Response (%)" reported_result=87
molecule="COc1ncc(Cn2nc(C(=O)Nc3ccc(F)c(C(=O)NC4CC4)c3)ccc2=O)cc1F [Compound 18]" study_target="T. cruzi proteasome (Trypanosoma cruzi, UniProt V5BU39+V5C017)" experimental_endpoint="Tc Prot Max Response (%)" reported_result=80

### Prompt Quick one: Tc Prot Max Response (%) of CNC(=O)c1cc(NC(=O)c2ccc(=O)n(Cc3ccc(OC)cc3)n2)ccc1F [Compound 26] ?
### Response 82

----------
Below: a set of entries, each annotated with reported Hs Prot Max Response (%).
STUDY_TARGET: Human 20S proteasome (Homo sapiens, UniProt P28074+P49721)
PROTOCOL_SUMMARY: human proteasome assay (chymotrypsin-like activity, Suc-LLVY-Rho-110-DPro)
MEASUREMENT_CONDITIONS: individual replicate
Answer format reminder: number followed by unit.

Take a look at these entries with their results.
structure_notation=CNC(=O)c1cc(NC(=O)c2ccc(=O)n(Cc3ccc(OC)c(F)c3)n2)ccc1F experimental_endpoint="Hs Prot Max Response (%)" reported_result=3.52%
structure_notation=COc1ccc(Cn2nc(C(=O)Nc3ccc(F)c(C(=O)NCCN4CCOCC4)c3)ccc2=O)cc1 experimental_endpoint="Hs Prot Max Response (%)" reported_result=12%
structure_notation=COc1ccc(Cn2nc(C(=O)Nc3ccc(F)c(C(=O)N[C@H]4C[C@H](OC)C4)c3)ccc2=O)cc1F experimental_endpoint="Hs Prot Max Response (%)" reported_result=23%
structure_notation=COc1ncc(Cn2nc(C(=O)Nc3ccc(F)c(C(=O)NC4CC4)c3)ccc2=O)cc1F experimental_endpoint="Hs Prot Max Response (%)" reported_result=13%
structure_notation=COc1cccc(Cn2nc(C(=O)Nc3ccc(F)c(C(=O)NC4CC4)c3)ccc2=O)c1 experimental_endpoint="Hs Prot Max Response (%)" reported_result=7%
structure_notation=COc1ccc(Cn2nc(C(=O)Nc3ccc(F)c(C(=O)N[C@H]4C[C@H](OC)C4)c3)ccc2=O)cc1 experimental_endpoint="Hs Prot Max Response (%)" reported_result=14%

Could you now consider this next compound?
### Prompt Record request: Hs Prot Max Response (%) value, item COc1ccc(Cn2nc(C(=O)Nc3ccc(F)c(C(=O)NC4CC4)c3)ccc2=O)cc1C#N
### Response 5%

----------
System: P-gp (MDR1)
PROTOCOL_SUMMARY: in vitro
MEASUREMENT_CONDITIONS: dog, MDCK-MDR1
EXPERIMENTAL_ENDPOINT: efflux ratio at 1 h, 1 µM

### Prompt For the molecule O=C(Nc1ccc(F)c(-c2cn3nc(N4CCOCC4)cnc3n2)c1)N1CCCC1 [Compound 4] , what efflux ratio at 1 h, 1 µM is on record?
### Response 22

----------
PROTOCOL_SUMMARY: ChromLogD
Assay type: physicochemical
MEASUREMENT_CONDITIONS: pH 7.4; read-out: Chrom LogDpH7.4
Output Satisfied for chromatographic logD not less than 4; output Not satisfied otherwise.

Reference set, count: 5
compound="O=C(Nc1ccc(F)c(C(=O)NC2CC2)c1)c1ccc(=O)n(Cc2ccccc2)n1 [Compound 9]" assigned_category=Satisfied
compound="COc1ccc(Cn2nc(C(=O)Nc3ccc(F)c(C(=O)NCCN4CCOCC4)c3)ccc2=O)cc1 [Compound 21]" assigned_category="Not satisfied"
compound="O=C(Nc1cccc(C(=O)NC2CC2)c1)c1ccc(=O)n(Cc2ccccc2)c1 [Compound 8]" assigned_category="Not satisfied"
compound="COc1ccc(Cn2nc(C(=O)Nc3ccc(F)c(C(=O)NC4CC4)c3)ccc2=O)cc1Cl [Compound 14]" assigned_category=Satisfied
compound="O=C(Nc1ccc(F)c(C(=O)NC2CC2)c1)c1ccc(=O)n(CC2CCCCC2)n1 [Compound 11]" assigned_category=Satisfied

### Prompt Confirm if chromatographic logD reported for the compound CN(C(=O)c1cccc(NC(=O)c2ccc(=O)n(Cc3ccccc3)n2)c1)C1CC1 [Compound 7] is 4 or above.
### Response Satisfied

### Prompt Threshold query (chromatographic logD >= 4) on COc1ccc(Cn2nc(C(=O)Nc3ccc(F)c(C(=O)NC4CC4)c3)ccc2=O)cc1 [Compound 12]
### Response Satisfied

----------
STUDY_TARGET: T. cruzi proteasome (Trypanosoma cruzi, UniProt V5BU39+V5C017)
PROTOCOL_SUMMARY: T. cruzi proteasome assay (chymotrypsin-like activity, Suc-LLVY-Rho-110-DPro)
MEASUREMENT_CONDITIONS: Tc Prot pIC50, individual replicate
EXPERIMENTAL_ENDPOINT: IC50 (nM)
Kindly answer with a numeric value in nM, unit omitted.

# example entries with known answers
structure_notation=COc1ccc(Cn2nc(C(=O)Nc3ccc(F)c(C(=O)NC4CC4)c3)ccc2=O)cc1C#N study_target="T. cruzi proteasome (Trypanosoma cruzi, UniProt V5BU39+V5C017)" reported_result=12.6
structure_notation=COc1ccc(Cn2nc(C(=O)Nc3ccc(F)c(C(=O)N[C@H]4C[C@H](N5CCOCC5)C4)c3)ccc2=O)cc1F study_target="T. cruzi proteasome (Trypanosoma cruzi, UniProt V5BU39+V5C017)" reported_result=5.01

Shift focus to the following entry.
### Prompt Record request: IC50 value, item COc1ccc(Cn2nc(C(=O)Nc3ccc(F)c(C(=O)NCCN4CCOCC4)c3)ccc2=O)cc1F
### Response 15.8

----------
Reported Emax is given for each of the following molecules.
STUDY_TARGET: T. cruzi proteasome (Trypanosoma cruzi, UniProt V5BU39+V5C017)
PROTOCOL_SUMMARY: T. cruzi proteasome assay (chymotrypsin-like activity, Suc-LLVY-Rho-110-DPro)
MEASUREMENT_CONDITIONS: read-out: Tc Prot Max Response (%), individual replicate
I only need the number, in %, no unit after it.

structure_notation=CNC(=O)c1cc(NC(=O)c2ccc(=O)n(Cc3ccc(OC)cc3)n2)ccc1F experimental_endpoint=Emax reported_result=73
structure_notation=COc1ccc(Cn2nc(C(=O)Nc3ccc(F)c(C(=O)NCCN4CCOCC4)c3)ccc2=O)cc1 experimental_endpoint=Emax reported_result=80
structure_notation=O=C(Nc1ccc(F)c(C(=O)NC2CC2)c1)c1ccc(=O)n(CC2CCCCC2)n1 experimental_endpoint=Emax reported_result=78
structure_notation=COc1ccc(Cn2nc(C(=O)Nc3ccc(F)c(C(=O)NC4CC4)c3)ccc2=O)cc1 experimental_endpoint=Emax reported_result=67
structure_notation=COc1ccc(Cn2nc(C(=O)Nc3ccc(F)c(C(=O)NC4CC4)c3)ccc2=O)cc1C#N experimental_endpoint=Emax reported_result=72

### Prompt What measured Emax goes with COc1ccc(Cn2nc(C(=O)Nc3ccc(F)c(C(=O)N[C@H]4C[C@@H](N5CCOCC5)C4)c3)ccc2=O)cc1F ?
### Response 82

### Prompt // returns reported Emax for input COc1ncc(Cn2nc(C(=O)Nc3ccc(F)c(C(=O)NC4CC4)c3)ccc2=O)cc1F
### Response 75

### Prompt Emax lookup needed for CN(C(=O)c1ccc(=O)n(Cc2ccccc2)n1)c1cccc(C(=O)NC2CC2)c1 , thanks.
### Response 30

### Prompt Emax lookup needed for COc1ccc(Cn2nc(C(=O)Nc3ccc(F)c(C(=O)N[C@H](C)CO)c3)ccc2=O)cc1F , thanks.
### Response 81
